Collected inhibition at 10 µM values appear next to each entry.
target: FGFR2 (Homo sapiens, UniProt P21802); test: Kinase inhibition activity test, isotope labeling: FGFR2; format: biochemical; conditions: test compound at a concentration of 10 μM; read-out: Activity inhibition rate FGFR2 (h)
Sequence (P21802 22-821): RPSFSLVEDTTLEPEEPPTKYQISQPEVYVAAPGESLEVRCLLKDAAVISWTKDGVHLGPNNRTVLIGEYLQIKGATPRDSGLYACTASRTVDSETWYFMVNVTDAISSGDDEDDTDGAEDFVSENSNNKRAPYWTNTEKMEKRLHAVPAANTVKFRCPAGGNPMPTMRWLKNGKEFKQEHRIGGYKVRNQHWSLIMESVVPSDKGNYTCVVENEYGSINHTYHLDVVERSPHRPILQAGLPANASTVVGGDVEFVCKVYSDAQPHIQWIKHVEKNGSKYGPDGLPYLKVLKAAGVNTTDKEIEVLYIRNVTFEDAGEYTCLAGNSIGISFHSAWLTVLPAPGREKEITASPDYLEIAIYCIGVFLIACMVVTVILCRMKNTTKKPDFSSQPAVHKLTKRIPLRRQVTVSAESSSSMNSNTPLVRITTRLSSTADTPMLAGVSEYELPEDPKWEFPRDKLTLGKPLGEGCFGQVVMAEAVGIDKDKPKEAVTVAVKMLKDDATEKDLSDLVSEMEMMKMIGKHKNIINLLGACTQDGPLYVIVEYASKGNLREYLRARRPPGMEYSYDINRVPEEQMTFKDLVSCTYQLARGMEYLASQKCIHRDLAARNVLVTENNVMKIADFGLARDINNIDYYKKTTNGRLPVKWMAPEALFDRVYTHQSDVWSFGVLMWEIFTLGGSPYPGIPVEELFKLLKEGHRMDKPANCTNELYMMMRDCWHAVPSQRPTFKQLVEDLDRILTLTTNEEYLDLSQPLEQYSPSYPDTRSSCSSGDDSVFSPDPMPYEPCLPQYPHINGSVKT

>  <Line notation>
O=C(Nc1ccc(Sc2ncnc3[nH]ncc23)cc1)Nc1ccc(C(F)(F)F)cc1

>  <inhibition at 10 µM>
> 50%

$$$$
>  <Line notation>
O=C(Nc1ccc(Oc2ncnc3[nH]ncc23)cc1)Nc1cc(C(F)(F)F)on1

>  <inhibition at 10 µM>
> 50%

$$$$
>  <Line notation>
CC(C)(C)c1cc(NC(=O)Nc2ccc(Oc3ncnc4[nH]ncc34)cc2)no1

>  <inhibition at 10 µM>
> 50%

$$$$

====

system: human leukemia cell line Jurkat; experiment: In vitro tumor cell proliferation inhibition (MTT): Jurkat; assay type: cell-based; settings: Homo sapiens, Jurkat, 72 hours
pIC50: −log10 of the molar value.
Collected pIC50 values appear next to each entry.
Experimental endpoint: pIC50

>  <Line notation>
CC(C)n1ncc2c(Oc3ccc(NC(=O)Nc4cc(C(C)(C)C)on4)cc3)ncnc21

>  <Experimental endpoint>
pIC50

>  <Assay result>
> 4.30

$$$$
>  <Line notation>
O=C(Nc1ccc(Oc2ncnc3[nH]ncc23)cc1)Nc1ccc(C(F)(F)F)cc1

>  <Experimental endpoint>
pIC50

>  <Assay result>
> 4.30

$$$$
>  <Line notation>
O=C(Nc1ccc(Oc2ncnc3[nH]ncc23)cc1)Nc1cc(C(F)(F)F)on1

>  <Experimental endpoint>
pIC50

>  <Assay result>
5.00 to 5.52

$$$$
>  <Line notation>
COc1cccc(NC(=O)Nc2ccc(Nc3ncnc4[nH]ncc34)cc2)c1

>  <Experimental endpoint>
pIC50

>  <Assay result>
> 4.30

$$$$
>  <Line notation>
O=C(Nc1ccc(Oc2ncnc3[nH]ncc23)cc1)Nc1ccc(N2CCOCC2)cc1

>  <Experimental endpoint>
pIC50

>  <Assay result>
> 4.30

$$$$
>  <Line notation>
CC(C)(C)c1cc(NC(=O)Nc2ccc(Oc3ncnc4[nH]ncc34)c(Cl)c2)no1

>  <Experimental endpoint>
pIC50

>  <Assay result>
5.52 to 6.00

$$$$
>  <Line notation>
Cc1cc(C)c(NC(=O)Nc2ccc(NC(=O)N3C=NC=C4NNC=C43)cc2)c(C)c1

>  <Experimental endpoint>
pIC50

>  <Assay result>
> 4.30

$$$$
>  <Line notation>
O=C(Nc1ccc(C(F)(F)F)cc1)Nc1cccc(Oc2ncnc3[nH]ncc23)c1

>  <Experimental endpoint>
pIC50

>  <Assay result>
> 4.30

$$$$
>  <Line notation>
C[C@@H](NC(=O)Nc1ccc(Nc2ncnc3[nH]ncc23)cc1)c1ccccc1

>  <Experimental endpoint>
pIC50

>  <Assay result>
> 4.30

$$$$
>  <Line notation>
Cn1nc(C(C)(C)C)cc1NC(=O)Nc1ccc(Oc2ncnc3[nH]ncc23)c(Cl)c1

>  <Experimental endpoint>
pIC50

>  <Assay result>
5.00 to 5.52

$$$$

====

system: Abl/Abl (T315I)(h); assay: Kinase inhibition activity test, isotope labeling: Abl; assay type: biochemical, human; conditions: test compound at a concentration of 10 μM
Collected Activity inhibition rate Abl/Abl (T315I)(h) values appear next to each entry.
Experimental endpoint: Activity inhibition rate Abl/Abl (T315I)(h)

>  <Line notation>
CC(C)(C)c1cc(NC(=O)Nc2ccc(Oc3ncnc4[nH]ncc34)cc2)no1

>  <Assay result>
>50%

$$$$
>  <Line notation>
O=C(Nc1ccc(Sc2ncnc3[nH]ncc23)cc1)Nc1cccc(C(F)(F)F)c1

>  <Assay result>
>30%

$$$$
>  <Line notation>
O=C(Nc1ccc(Oc2ncnc3[nH]ncc23)cc1)Nc1cc(C(F)(F)F)on1

>  <Assay result>
>50%

$$$$
>  <Line notation>
CC(C)(C)c1cc(NC(=O)Nc2ccc(Oc3ncnc4[nH]ncc34)cc2)on1

>  <Assay result>
>50%

$$$$
>  <Line notation>
O=C(Nc1ccc(Sc2ncnc3[nH]ncc23)cc1)Nc1ccc(C(F)(F)F)cc1

>  <Assay result>
>30%

$$$$
>  <Line notation>
CC(C)(C)c1cc(NC(=O)Nc2ccc(Oc3ncnc4[nH]ncc34)c(F)c2)no1

>  <Assay result>
>50%

$$$$
>  <Line notation>
CC(C)(C)c1cc(NC(=O)Nc2ccc(Sc3ncnc4[nH]ncc34)cc2)no1

>  <Assay result>
>30%

$$$$
>  <Line notation>
CC(C)(C)c1cc(NC(=O)Nc2ccc(Oc3ncnc4[nH]ncc34)cc2)n(-c2ccccc2)n1

>  <Assay result>
>50%

$$$$

These entries and their values trace back to patent US9828375B2.
